Values were extracted from ChEMBL document CHEMBL4513216.

- PROCEDURE_DETAILS: Toxicity liver stage against HepG2, at 10uM
- Assay type: cell-based
- Set-up: test concentration 10 uM, cell line HepG2-A16-CD81EGFP
- APPLIED_CONDITIONS: human, HepG2-A16-CD81EGFP cells; read-out: INHIBITION
ASSAY_METRIC: cytotoxicity at 10 µM (%)
Answers are plain numbers, in %.

Check out these entries, answers already filled in.
>>> experimental_value("Cc1ccc(NC2CCN(C(=O)CCn3nc(C)cc3C)CC2)nn1")
-9.66
>>> experimental_value("c1ccc(Cn2cc3c(n2)C(COCC2CC2)OCC3)nc1 (stereo unspecified)")
-6.63

Would you mind giving cytotoxicity at 10 µM for every molecule in the list below?
1. Cc1cnn(CC(C)Nc2nc(C)cc(N(C)C)n2)c1 (stereo unspecified)
2. CC(C)c1nnc2n1CCN(C(=O)c1ccc(OCC3CC3)cc1)C2
3. O=C(C1CCOCC1)N1C[C@@H]2OCCN(CCN3CCCC3)[C@@H]2C1

Outgoing:
[7.07, -6.14, -3.83]

----------
- PROCEDURE_DETAILS: Toxicity liver stage against HepG2, at 10uM
- Format: cell-based
- Set-up: test concentration 10 uM, cell line HepG2-A16-CD81EGFP
- APPLIED_CONDITIONS: human, HepG2-A16-CD81EGFP cells; read-out: INHIBITION
ASSAY_METRIC: cytotoxicity at 10 µM (%)
Give bare numbers, in %.

Example entries and their recorded answers appear below.
>>> experimental_value("O=C(NCC1CC1)[C@@H]1C[C@@H]2OCCN[C@@H]2C1")
-131
>>> experimental_value("CC(=O)N1CCC2(CC1)CN(C(C)C)c1ccc(F)cc12")
-110
>>> experimental_value("O=C([C@@H]1C[C@@H]2CCN(Cc3ccco3)C[C@H]2O1)N1CCCO1")
4.78
>>> experimental_value("Cc1noc(CCCC(=O)NC(C)c2nnc3n2CCCCC3)n1 (stereo unspecified)")
3.21
>>> experimental_value("CC(C)CN1C(=O)CC[C@H]2CN(C(=O)Cn3ccc(=O)cc3)CC[C@H]21")
0.582

Quick one: give me cytotoxicity at 10 µM for each item below, same order please.
1. Cn1c(N)nnc1SCc1cc(Br)ccc1Cl
2. Cc1ncncc1-c1ccnc(N(C)C)n1
3. CN1CCOC(CNC(=O)C2(c3cccc(C(F)(F)F)c3)CCCC2)C1 (stereo unspecified)

Outgoing:
1: -21.7; 2: -8.3; 3: -4.22

For every record below, what is its cytotoxicity at 10 µM?
1. Cc1nnc([C@@H]2CC[C@@H]3[C@@H](CCN3S(=O)(=O)c3cccnc3)O2)o1
2. Cc1occc1CNC(=O)C1CCCN1C(=O)C1CC1 (stereo unspecified)
3. CC(C)N(C)CC(=O)NCCc1nc(C(F)(F)F)cs1

Outgoing:
0.462
7.98
5.07

----------
- PROCEDURE_DETAILS: Toxicity liver stage against HepG2, at 10uM
- Format: cell-based
- Set-up: test concentration 10 uM, cell line HepG2-A16-CD81EGFP
- APPLIED_CONDITIONS: human, HepG2-A16-CD81EGFP cells; read-out: INHIBITION
ASSAY_METRIC: cytotoxicity at 10 µM (%)
One number for each entry, in %.

Answered cases to consult:
>>> experimental_value("COC[C@]1(O)CCN(Cc2cnc(N(C)C)nc2)CC1(C)C")
-5.03
>>> experimental_value("O=C(C1=CC2(CCNCC2)c2ccccc21)N1CCCC1")
-2.07
>>> experimental_value("O=C(NCC1CCS(=O)(=O)C1)c1cccc(CN2CCCC2)c1 (stereo not drawn)")
-0.986
>>> experimental_value("O=C(COc1ccccc1F)NCCC(O)c1ccoc1 (stereo not drawn)")
-13.4

Parameters: items (list). Returns: cytotoxicity at 10 µM for each item.
1. CCc1nnc(C(C)N2CCN(CCC(C)(C)C)CC2)o1 (stereo not drawn)
2. Cc1ccccc1CNC(C)c1ccc(OCC(=O)NC2CC2)cc1 (stereo not drawn)
3. O=C1COC2(CCN(Cc3cccs3)CC2)CN1c1cccnc1

Outgoing:
[6.61, -6.97, -125]

Provide the reported cytotoxicity at 10 µM of each entry below, same order.
1. Cc1cccc(CN2C[C@@H]3CN(C(=O)[C@H]4CCCO4)C[C@@H]3C2=O)c1
2. COCCN1CCOCC2(CCCN(Cc3ccc(C)o3)C2)C1 (stereo not drawn)
3. Cc1cncc(C2CCCN(C(=O)c3cnco3)C2)n1 (stereo not drawn)

Outgoing:
1. 9.95
2. -5.58
3. -6.94

I would be grateful if you could provide cytotoxicity at 10 µM for each of the following entries.
1. CN(CCCSc1ccccc1)C(=O)Cn1ncc(N(C)C)cc1=O
2. CCNc1ncc(C(=O)NCCc2ccc(C)c(C)c2)cn1
3. O=C(NCc1ccccc1)N1CCC(Oc2ncccc2Cl)CC1
4. CC(C)Cc1noc(-c2ccc(NCc3noc(C(C)C)n3)nc2)n1
5. CCN(CC)S(=O)(=O)CC(=O)Nc1ccsc1
6. COC(=O)COc1nc(C(C)C)no1
7. CCOc1cc(C(=O)N2CCCC(n3nc(C)nc3C)C2)ccn1 (stereo not drawn)
8. NC(=O)N1CCC(C(=O)NC2CCc3nccn3C2)CC1 (stereo not drawn)

Outgoing:
0.0227
-5.1
17
0.178
-2.77
-6.22
-5.99
-2.09

For each entry beneath this line, provide reported cytotoxicity at 10 µM.
1. NC(=O)COc1ccc(CNCc2ccc(F)c(F)c2)cc1
2. c1cn(CCNc2nc(NC3CC3)nc3c2CCNCC3)nn1
3. c1ccc(CCN2CCOC(Cn3cccn3)C2)nc1 (stereo not drawn)
4. CC(=O)N1CCN(c2ccccc2CNc2cc(F)cc(F)c2)CC1

Outgoing:
[-15.2, -52.8, -4.48, 3.7]
